- system.under.test: HIV-1 Env of CAP256.PI (HIV-1)
- assay.summary: cell-based or functional assay
attribute.measured: neutralization IC50

CAP256-VRC26.06 (antibody, V domains shown) VH: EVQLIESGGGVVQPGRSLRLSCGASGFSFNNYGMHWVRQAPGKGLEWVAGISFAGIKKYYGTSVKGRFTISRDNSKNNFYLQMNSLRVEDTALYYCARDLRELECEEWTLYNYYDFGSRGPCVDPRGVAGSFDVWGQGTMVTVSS VL: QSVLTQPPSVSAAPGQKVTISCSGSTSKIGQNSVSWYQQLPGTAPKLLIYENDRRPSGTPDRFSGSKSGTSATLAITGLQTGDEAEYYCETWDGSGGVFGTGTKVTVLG | 0.03 µg/mL
CAP256-VRC26.12 (antibody, V domains shown) VH: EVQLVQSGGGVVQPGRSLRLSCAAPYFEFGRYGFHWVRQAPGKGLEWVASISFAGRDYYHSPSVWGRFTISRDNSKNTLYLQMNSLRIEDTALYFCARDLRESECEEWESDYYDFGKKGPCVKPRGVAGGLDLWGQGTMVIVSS VL: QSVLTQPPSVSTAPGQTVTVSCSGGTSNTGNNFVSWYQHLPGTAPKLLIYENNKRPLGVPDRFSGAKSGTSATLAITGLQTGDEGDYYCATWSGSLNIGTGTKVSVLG | > 50 µg/mL
CAP256-VRC26.07 (antibody, V domains shown) VH: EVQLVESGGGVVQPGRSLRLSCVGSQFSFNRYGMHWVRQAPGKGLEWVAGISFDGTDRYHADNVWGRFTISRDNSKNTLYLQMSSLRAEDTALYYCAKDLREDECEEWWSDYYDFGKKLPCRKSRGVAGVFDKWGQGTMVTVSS VL: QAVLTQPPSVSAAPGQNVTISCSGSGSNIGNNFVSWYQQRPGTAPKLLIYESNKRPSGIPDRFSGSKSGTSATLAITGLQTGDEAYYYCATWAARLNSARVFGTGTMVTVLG | > 50 µg/mL

Next:
Give the reported value of neutralization IC50 for this record: CAP256-VRC26.01 (antibody, V domains shown) VH: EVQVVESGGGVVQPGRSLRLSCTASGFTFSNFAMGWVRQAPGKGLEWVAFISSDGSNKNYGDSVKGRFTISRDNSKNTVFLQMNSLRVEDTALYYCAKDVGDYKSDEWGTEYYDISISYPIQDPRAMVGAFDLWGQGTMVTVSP VL: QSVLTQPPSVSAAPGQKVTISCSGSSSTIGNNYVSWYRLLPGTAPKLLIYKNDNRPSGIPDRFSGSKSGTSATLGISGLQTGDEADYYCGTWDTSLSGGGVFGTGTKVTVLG
> 50 µg/mL
